- Test system: KRas G12C mutant
- test-details: Ras GTP Binding Domain Inhibition Assay (Ras Superfamily Assay)
- assay-context: 20 μM compound, without SOS
- Excerpt: Biological Example 3: Ras GTP Binding Domain Inhibition Assay The assays described in Example 3 are collectively referred to as the “Ras Superfamily Assay” throughout this application. […] The small GTPases proteins: KRas wild type. KRas Q61H mutant, KRas G12C mutant, KRas G12D mutants, Rac-1, and Rho-A were expressed as His-tagged proteins. In addition, the Guanosine nucleotide Exchange Factor (GEF) Sos protein (residues 556-1049) was expressed as a His-tagged protein. […]
measurement-kind: KRas G12C mutant: % inh.

Below, 8 molecules whose answers are already recorded.
For the molecule COCC1CCN(c2nc(-c3ccccn3)nn3cc(-c4ccn(C(C)C)n4)c(-c4ccccc4)c23)C1 (racemic) , what KRas G12C mutant: % inh. is on record?
A (A = 1-25% inhibition)

Need KRas G12C mutant: % inh. of COc1cc(-c2cn3nc(-c4nccn4C)nc(Nc4cc(OC)ncn4)c3c2C)ccn1 , thanks.
A (A = 1-25% inhibition)

Consider the molecule shown here: Cc1c(-c2ccn(C(C)C)n2)cn2nc(-c3nccn3C)nc(Nc3cc(C4CC4)no3)c12 What is its recorded KRas G12C mutant: % inh.?
A (A = 1-25% inhibition)

Reported KRas G12C mutant: % inh., molecule COc1cccc(-c2cn3nc(-c4nccn4C)nc(N[C@@H]4CC[C@H](OC)C4)c3c2-c2ccccc2)c1Cl (racemic) : ____
A (A = 1-25% inhibition)

GET /values?readout=KRas G12C mutant: % inh.&item= COc1cccc(-c2cn3nc(-c4nccn4C)nc(N[C@H]4C[C@H](OC)C4)c3c2-c2ccccc2)c1Cl
0 (0 = 0% inhibition)

What KRas G12C mutant: % inh. value was documented for this molecule, COc1cccc(Nc2nc(-c3nccn3C)nn3ccc(-c4ccccc4)c23)n1 ?
0 (0 = 0% inhibition)

I'd like to know its KRas G12C mutant: % inh.. The molecule in question is Cc1c(-c2ccn(C(C)C)n2)cn2nc(-c3nccn3C)nc(Nc3cnccn3)c12
A (A = 1-25% inhibition)

Please look up its KRas G12C mutant: % inh.: Cn1ccnc1-c1nc(OCCN2CCCC2)c2c(-c3ccccc3)ccn2n1
0 (0 = 0% inhibition)

Next:
Would you kindly share the measured KRas G12C mutant: % inh. for CO[C@H]1CC[C@@H](Nc2nc(-c3ccccn3)nn3cc(-c4ccn(C(C)C)n4)c(-c4ccccc4)c23)C1 (racemic) ?
0 (0 = 0% inhibition)

// returns reported KRas G12C mutant: % inh. for input COc1cc(Nc2nc(-c3ccccn3)nn3cc(-c4ccn(C(C)C)n4)c(C)c23)ncn1
A (A = 1-25% inhibition)

----------
- Tested on: KRas wild type
- test-details: Ras GTP Binding Domain Inhibition Assay (Ras Superfamily Assay)
- assay-context: at 20 μM, with SOS
- From the text: Biological Example 3: Ras GTP Binding Domain Inhibition Assay The assays described in Example 3 are collectively referred to as the “Ras Superfamily Assay” throughout this application. […] The small GTPases proteins: KRas wild type. KRas Q61H mutant, KRas G12C mutant, KRas G12D mutants, Rac-1, and Rho-A were expressed as His-tagged proteins. In addition, the Guanosine nucleotide Exchange Factor (GEF) Sos protein (residues 556-1049) was expressed as a His-tagged protein. […]
measurement-kind: KRas wild type + SOS: % inh.

Which KRas wild type + SOS: % inh. value is on record for CO[C@H]1CC[C@H](Nc2nc(-c3nccn3C)nn3cc(-c4cccnc4)c(-c4ccccc4)c23)C1 (racemic) [Compound 194] ?
0 (0 = 0% inhibition)

Which KRas wild type + SOS: % inh. reading was recorded for the molecule COc1cccc(-c2cn3nc(-c4nccn4C)nc(N[C@H]4C[C@@H](OC)C4)c3c2-c2ccccc2)c1C [Compound 269] ?
A (A = 1-25% inhibition)

Given the molecule COc1cccc(-c2cn3nc(-c4nccn4C)nc(N[C@@H]4CC[C@H]4OC)c3c2-c2ccccc2)c1C (racemic) [Compound 272] , what is its reported KRas wild type + SOS: % inh.?
0 (0 = 0% inhibition)

So what's the measured KRas wild type + SOS: % inh. for this one? CO[C@H]1C[C@H](Nc2nc(-c3nccn3C)nn3cc(-c4cnccc4C)c(-c4ccccc4)c23)C1 [Compound 218]
A (A = 1-25% inhibition)

Return reported KRas wild type + SOS: % inh.; argument: COc1ccnc(Oc2nc(-c3nccn3C)nn3cc(-c4ccn(C)n4)c(C)c23)c1 [Compound 220]
A (A = 1-25% inhibition)

Further cases:
// KRas wild type + SOS: % inh. lookup, key: COc1ccc(F)c(-c2cn3nc(-c4nccn4C)nc(N[C@H]4C[C@H](OC)C4)c3c2-c2ccccc2)c1F [Compound 273]
A (A = 1-25% inhibition)

Recorded KRas wild type + SOS: % inh. for COc1ccnc(N(C)c2nc(-c3nccn3C)nn3cc(-c4ccn(C)n4)c(C)c23)c1 [Compound 223] , please?
0 (0 = 0% inhibition)

Reported KRas wild type + SOS: % inh., molecule Cn1ccnc1-c1nc(O)c2c(-c3ccccc3)c(-c3cccnc3)cn2n1 [Compound 189] : ____
0 (0 = 0% inhibition)

Field request: KRas wild type + SOS: % inh. | item: CO[C@H]1C[C@H](Nc2nc(-c3nccn3C)nn3cc(-c4cccc5c4CCO5)c(-c4ccccc4)c23)C1 [Compound 210]
0 (0 = 0% inhibition)

Recorded KRas wild type + SOS: % inh. for COc1ccc(N(C)c2nc(-c3nccn3C)nn3cc(-c4ccn(C)n4)c(C)c23)nc1 [Compound 225] , please?
A (A = 1-25% inhibition)
